Cited source for all entries: ChEMBL document CHEMBL1926527

Tested on: Mycobacterium tuberculosis
Assay: Antimycobacterial activity against Mycobacterium tuberculosis isolate 352 expressing rpoB Asp516Leu and Phe514Phe double mutant gene by resazurin microtiter assay
Format: functional
MEASURED PROPERTY: MIC

Returns the measured MIC for the input compound. Input: "CO[C@H]1/C=C/O[C@@]2(C)Oc3c(C)c(O)c4c(c3C2=O)C2=NC3(CCN(CC(C)C)CC3)NC2=C(NC(=O)/C(C)=C\C=C\[C@H](C)[C@H](O)[C@@H](C)[C@@H](O)[C@@H](C)[C@H](O)[C@@H]1C)C4=O"
0.12 µg/mL

Entry "CCCCCCCCCCCCCCCC(=O)N1C2=C3NC(=O)/C(C)=C\C=C\[C@H](C)[C@H](O)[C@@H](C)[C@@H](O)[C@@H](C)[C@H](OC(C)=O)[C@H](C)[C@@H](OC)/C=C/O[C@@]4(C)Oc5c(C)c(O)c(c(c5C4=O)C2=NC12CCN(CC(C)C)CC2)C3=O" please
>2 µg/mL

Entry "CO[C@H]1/C=C/O[C@@]2(C)Oc3c(C)c(O)c4c(c3[C@H]2O)C2=NC3(CCN(CC(C)C)CC3)N(C(C)=O)C2=C(NC(=O)/C(C)=C\C=C\[C@H](C)[C@H](O)[C@@H](C)[C@@H](O)[C@@H](C)[C@H](OC(C)=O)[C@@H]1C)C4=O" please
>2 µg/mL

Entry "CO[C@H]1/C=C/O[C@@]2(C)Oc3c(C)c(O)c4c(O)c(c(/C=N/N5CCN(C)CC5)c(O)c4c3C2=O)NC(=O)/C(C)=C\C=C\[C@H](C)[C@H](O)[C@@H](C)[C@@H](O)[C@@H](C)[C@H](OC(C)=O)[C@@H]1C" please
>2 µg/mL
